// data source = paper PMC10397247

# test-system: T1, 4H2233-bA
# T1 chain: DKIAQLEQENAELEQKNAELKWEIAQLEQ
# method-summary: two-hybrid library CCNG1;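 note: natural log of median RNA to DNA barcode read ratio; higher means stronger binding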
endpoint-name: interaction score

A. DKIAQLEQENAELEQKNAELKWEIAQLEQ [4H2233-bA]
B. DKIAQLEQEIAELKQENAELKWKNAQLEQ [4H2143-bA]
Query block: Which of these two has the smaller recorded interaction score: A or B ? Answer by quoting the chosen item's label.
Result block: A
